- measurement-target: Sucrase-isomaltase, intestinal (Rattus norvegicus)
- Sequence (P23739 1-1013 limits assumed): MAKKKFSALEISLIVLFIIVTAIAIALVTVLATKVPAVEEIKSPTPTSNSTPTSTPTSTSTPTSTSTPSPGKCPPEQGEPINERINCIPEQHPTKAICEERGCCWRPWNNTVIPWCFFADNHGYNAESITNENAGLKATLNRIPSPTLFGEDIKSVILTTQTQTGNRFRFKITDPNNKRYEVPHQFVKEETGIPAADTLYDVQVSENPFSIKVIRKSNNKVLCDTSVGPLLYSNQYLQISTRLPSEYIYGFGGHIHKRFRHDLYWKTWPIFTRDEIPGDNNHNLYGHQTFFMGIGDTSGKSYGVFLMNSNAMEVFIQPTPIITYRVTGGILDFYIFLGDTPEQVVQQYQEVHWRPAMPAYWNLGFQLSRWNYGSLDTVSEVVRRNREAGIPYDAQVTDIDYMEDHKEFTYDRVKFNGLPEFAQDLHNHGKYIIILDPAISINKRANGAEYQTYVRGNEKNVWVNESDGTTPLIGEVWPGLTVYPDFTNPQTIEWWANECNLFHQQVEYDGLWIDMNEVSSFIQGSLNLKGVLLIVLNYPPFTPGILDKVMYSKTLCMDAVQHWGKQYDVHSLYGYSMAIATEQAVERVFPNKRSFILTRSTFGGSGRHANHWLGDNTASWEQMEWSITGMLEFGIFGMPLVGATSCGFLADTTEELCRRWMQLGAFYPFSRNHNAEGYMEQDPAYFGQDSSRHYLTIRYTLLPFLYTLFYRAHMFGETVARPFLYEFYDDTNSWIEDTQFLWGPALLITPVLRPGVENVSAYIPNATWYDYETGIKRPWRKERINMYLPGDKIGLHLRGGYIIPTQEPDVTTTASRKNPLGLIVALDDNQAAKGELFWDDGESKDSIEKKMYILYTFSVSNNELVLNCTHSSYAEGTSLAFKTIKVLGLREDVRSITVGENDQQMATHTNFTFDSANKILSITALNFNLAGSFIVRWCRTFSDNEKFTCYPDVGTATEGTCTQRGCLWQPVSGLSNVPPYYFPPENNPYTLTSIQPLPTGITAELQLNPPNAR
- Sequence (P23739 1014-1841 limits assumed): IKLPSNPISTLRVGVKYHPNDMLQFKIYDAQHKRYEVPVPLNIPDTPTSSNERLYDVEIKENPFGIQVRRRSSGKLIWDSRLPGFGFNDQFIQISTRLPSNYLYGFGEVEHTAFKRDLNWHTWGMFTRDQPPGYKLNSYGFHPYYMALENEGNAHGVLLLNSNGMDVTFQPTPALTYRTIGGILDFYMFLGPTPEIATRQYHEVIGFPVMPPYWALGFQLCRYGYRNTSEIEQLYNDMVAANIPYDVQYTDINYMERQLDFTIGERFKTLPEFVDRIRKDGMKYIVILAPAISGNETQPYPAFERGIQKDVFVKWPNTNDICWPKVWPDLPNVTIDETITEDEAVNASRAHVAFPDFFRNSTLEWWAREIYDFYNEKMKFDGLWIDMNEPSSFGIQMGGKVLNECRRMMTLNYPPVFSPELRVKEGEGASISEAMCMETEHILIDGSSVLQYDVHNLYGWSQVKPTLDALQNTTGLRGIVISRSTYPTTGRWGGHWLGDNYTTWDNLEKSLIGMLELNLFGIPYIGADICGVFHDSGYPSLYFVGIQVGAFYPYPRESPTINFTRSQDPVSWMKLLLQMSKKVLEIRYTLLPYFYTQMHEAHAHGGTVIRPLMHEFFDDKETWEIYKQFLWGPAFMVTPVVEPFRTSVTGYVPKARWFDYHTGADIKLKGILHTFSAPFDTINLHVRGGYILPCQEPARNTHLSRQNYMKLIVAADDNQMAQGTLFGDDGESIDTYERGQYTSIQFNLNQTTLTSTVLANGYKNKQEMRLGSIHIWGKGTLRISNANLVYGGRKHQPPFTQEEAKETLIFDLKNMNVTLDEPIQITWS
- measurement-protocol: Competitive inhibition of rat intestine sucrase using sucrose as substrate by Lineweaver-Burk plot analysis
measurement-kind: Ki (µM)

[
  {
    "sample-smiles": "O=C(/C=C/c1ccc(O)c(O)c1)O[C@@H]1C[C@@H](O)[C@H](O)[C@@H](O)[C@H]1O",
    "result": 22.4
  }
]

* * *

# IC50 listing for each entry below
- Tested on: Radical scavenging activity
- measurement-protocol: Antioxidant activity assessed as DPPH radical scavenging activity after 15 mins by spectrophotometry
- Assay type: functional
measurement-kind: IC50

[
  {
    "compound": "O=C(O)/C=C/c1ccc(O)c(O)c1",
    "result": "150 µM"
  },
  {
    "compound": "O=C(/C=C/c1ccc(O)c(O)c1)O[C@@H]1C[C@@H](O)[C@H](O)[C@@H](O)[C@H]1O",
    "result": "110 µM"
  },
  {
    "compound": "COc1ccc(O)c(C(C)(C)C)c1.COc1ccc(O)cc1C(C)(C)C [BUTYLATED HYDROXYANISOLE]",
    "result": "0.1 µM"
  }
]
